- ASSAYED TARGET: Bombesin Receptor (Mus musculus, UniProt P21729)
- Construct: Pancreata from mice were chopped at 350 μm with a tissue chopper and pooled; from tissue; host or cells: chopped mouse pancreas
- Sequence (P21729 whole entry): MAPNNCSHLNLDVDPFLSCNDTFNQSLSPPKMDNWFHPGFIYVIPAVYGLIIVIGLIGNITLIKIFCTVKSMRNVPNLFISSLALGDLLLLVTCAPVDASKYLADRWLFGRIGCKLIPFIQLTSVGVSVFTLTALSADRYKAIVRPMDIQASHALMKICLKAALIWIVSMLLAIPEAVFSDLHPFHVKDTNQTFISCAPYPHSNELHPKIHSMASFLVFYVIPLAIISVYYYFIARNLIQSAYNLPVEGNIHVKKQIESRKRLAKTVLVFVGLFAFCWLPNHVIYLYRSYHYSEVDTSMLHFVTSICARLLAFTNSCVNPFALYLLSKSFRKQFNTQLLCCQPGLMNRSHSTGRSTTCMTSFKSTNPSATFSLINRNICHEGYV
- MEASUREMENT NOTES: Phosphatidylinositol turnover in chopped mouse pancreas
- Format: cell-based
- Design: key: (+) represents agonist activity; (-) indicates no agonist activity
Where a SMILES comes first, the peptide text is derived from it. [ ]: non-standard residue; d: D form. The star is where a group is joined. X1 = CC(C)C[C@@H](C(N)=O)N(C)C[C@H](Cc1ccccc1)N*; pGlu = O=C1CC[C@@H](C(=O)O)N1; Octanoyl = CCCCCCCC(=O)*
PROPERTY LABEL: PI Turnover Agonist

Guide cases for PI Turnover Agonist, answers given:
CC(C)C[C@@H](C(N)=O)N(C)C[C@H](Cc1ccccc1)NC(=O)[C@H](Cc1c[nH]cn1)NC(=O)CNC(=O)[C@@H](NC(=O)[C@H](C)NC(=O)[C@H](Cc1c[nH]c2ccccc12)NC(=O)[C@H](CCC(N)=O)NC(=O)[C@@H]1CCC(=O)N1)C(C)C [[Phe^8 .psi.[CH2 N(CH3)]Leu^9]litorin] ([pGlu]QWAVGH-X1) ... +
CCCCCCCC(=O)N[C@@H](CCC(N)=O)C(=O)N[C@@H](Cc1c[nH]c2ccccc12)C(=O)N[C@@H](C)C(=O)N[C@H](C(=O)N[C@H](C)C(=O)N[C@@H](Cc1c[nH]cn1)C(=O)N[C@@H](CC(C)C)C(N)=O)C(C)C [Octanoyl[D-Ala^11]bombesin(7-13)amide] (Octanoyl-QWAV[dA]HL-NH2; N-terminus and C-terminus assumed) ... -
CSCC[C@H](NC(=O)[C@H](Cc1ccccc1)NC(=O)[C@H](Cc1c[nH]cn1)NC(=O)CNC(=O)[C@@H](NC(=O)[C@H](C)NC(=O)[C@H](Cc1c[nH]c2ccccc12)NC(=O)[C@H](CCC(N)=O)NC(=O)[C@@H]1CCC(=O)N1)C(C)C)C(N)=O [Litorin, reference compound] ... +
CC(=O)N[C@@H](CCC(N)=O)C(=O)N[C@@H](Cc1c[nH]c2ccccc12)C(=O)N[C@@H](C)C(=O)N[C@H](C(=O)N[C@H](C)C(=O)N[C@@H](Cc1c[nH]cn1)C(=O)N[C@@H](CC(C)C)C(N)=O)C(C)C [Acetyl[D-Ala^11]bombesin(7-13)amide] (Ac-QWAV[dA]HL-NH2) ... -

Now consider a different molecule.
Exercise: Report measured PI Turnover Agonist; entry is CSCC[C@H](NC(=O)[C@H](CC(C)C)NC(=O)[C@H](Cc1cnc[nH]1)NC(=O)CNC(=O)[C@@H](NC(=O)[C@H](C)NC(=O)[C@H](Cc1c[nH]c2ccccc12)NC(=O)[C@H](CCC(N)=O)NC(=O)[C@H](CC(N)=O)NC(=O)CNC(=O)[C@H](CC(C)C)NC(=O)[C@H](CCCN=C(N)N)NC(=O)[C@H](CCC(N)=O)NC(=O)[C@@H]1CCC(=O)N1)C(C)C)C(N)=O
Solution: +

----------
- ASSAYED TARGET: Bombesin Receptor (Mus musculus, UniProt P21729)
- Construct: Pancreata from mice were chopped at 350 μm with a tissue chopper and pooled; from tissue; host or cells: chopped mouse pancreas
- MEASUREMENT NOTES: Phosphatidylinositol turnover in chopped mouse pancreas
- Assay type: cell-based
- CONDITION INFO: antagonist activity, referenced to the stimulation produced by 100 nM GRP
Where a SMILES comes first, the peptide text is derived from it. [ ]: non-standard residue; d: D form. The star is where a group is joined. X2 = CC(C)C[C@@H](CN[C@@H](CC(C)C)C(N)=O)N*; Palmitoyl = CCCCCCCCCCCCCCCC(=O)*; pGlu = O=C1CC[C@@H](C(=O)O)N1
Readings of PI Turnover % Inhibition for the listed molecules
Numeric answer only, unit % assumed.

CC(C)C[C@@H](CN[C@@H](CC(C)C)C(N)=O)NC(=O)[C@H](Cc1c[nH]cn1)NC(=O)CNC(=O)[C@@H](NC(=O)[C@H](C)NC(=O)[C@H](Cc1c[nH]c2ccccc12)NC(=O)[C@H](CCC(N)=O)NC(=O)[C@H](CC(N)=O)NC(=O)CNC(=O)[C@H](CC(C)C)NC(=O)[C@H](CCCNC(=N)N)NC(=O)[C@H](CCC(N)=O)NC(=O)[C@@H]1CCC(=O)N1)C(C)C [[Leu^13 .psi.{CH2 NH]Leu^14]bombesin, reference compound] ([pGlu]QRLGNQWAVGH-X2) ... 30
CC(C)C[C@@H](C(N)=O)[S+]([O-])C[C@H](Cc1ccccc1)NC(=O)[C@H](Cc1c[nH]cn1)NC(=O)CNC(=O)[C@@H](NC(=O)[C@H](C)NC(=O)[C@H](Cc1c[nH]c2ccccc12)NC(=O)[C@H](CCC(N)=O)NC(=O)[C@@H]1CCC(=O)N1)C(C)C (single isomer, unassigned) [[Phe^8 .psi.[CH2 S(O)]Leu^9 ]litorin I] ... 53

Exercise: Report measured PI Turnover % Inhibition; entry is CCCCCCCCCCCCCCCC(=O)N[C@@H](CCC(N)=O)C(=O)N[C@@H](Cc1c[nH]c2ccccc12)C(=O)N[C@@H](C)C(=O)N[C@H](C(=O)N[C@H](C)C(=O)N[C@@H](Cc1c[nH]cn1)C(=O)N[C@@H](CC(C)C)C(N)=O)C(C)C [Palmityl[D-Ala^11]bombesin(7-13)amide] (Palmitoyl-QWAV[dA]HL-NH2)
Solution: 45
